assay: Inhibition of interleukin-23 binding to rat interleukin-23 receptor incubated for 2 hrs by competitive binding ELISA
I'd appreciate it if you could supply IC50 values for the items below.

Ask: Please report the measured IC50 for "CC(=O)N[C@H](C(=O)N[C@@H](CCCNC(=N)N)C(=O)N[C@H](C(=O)N[C@@H](Cc1c[nH]c2ccccc12)C(=O)N[C@@H](CCC(N)=O)C(=O)N[C@@H](CS)C(=O)N[C@@H](Cc1ccc(O)cc1)C(=O)N[C@@H](Cc1c[nH]c2ccccc12)C(=O)N[C@@H](CCCNC(=N)N)C(=O)N[C@@H](CCCCN)C(=O)N[C@@H](Cc1ccccc1)C(=O)NCC(=O)NCCOCC(=O)N[C@H](CCCCN)C(N)=O)[C@@H](C)O)C(C)(C)S"
Reply: 100 to 1000 nM

Ask: Please report the measured IC50 for "CC(=O)N[C@@H](CS)C(=O)N[C@@H](CCCNC(N)=O)C(=O)N[C@H](C(=O)N[C@@H](Cc1c[nH]c2ccccc12)C(=O)N[C@@H](CCC(N)=O)C(=O)N[C@@H](CS)C(=O)N[C@@H](Cc1ccc(O)cc1)C(=O)N[C@@H](Cc1c[nH]c2ccccc12)C(=O)N[C@@H](CCCNC(=N)N)C(=O)N[C@H](C(=O)N[C@@H](Cc1ccccc1)C(=O)NCC(=O)NCCC(=O)N[C@H](CCCCN)C(N)=O)C(C)C)[C@@H](C)O"
Reply: 76 nM

Ask: Please report the measured IC50 for "CC(=O)N[C@H]1CCSC[C@@H](C(=O)N[C@@H](Cc2ccc(OCCN)cc2)C(=O)N[C@@H](Cc2ccc3ccccc3c2)C(=O)NC2(C(=O)N[C@@H](CCC(=O)O)C(=O)N[C@@H](CC(N)=O)C(=O)N[C@@H](CC(N)=O)C(N)=O)CCCC2)NC(=O)[C@H](CCC(N)=O)NC(=O)[C@H](Cc2c[nH]c3ccccc23)NC(=O)[C@H]([C@@H](C)O)NC(=O)[C@H](CCC(N)=O)NC1=O"
Reply: < 10 nM

Ask: Please report the measured IC50 for "CC(=O)NCCCC[C@H](NC(=O)[C@](C)(CCCCN)NC(=O)[C@H](Cc1ccc2ccccc2c1)NC(=O)[C@H](Cc1ccc(OCCN)cc1)NC(=O)[C@@H]1CSCC[C@H](NC(C)=O)C(=O)N[C@@H](CCC(N)=O)C(=O)N[C@@H]([C@@H](C)O)C(=O)N[C@@H](Cc2c[nH]c3ccccc23)C(=O)N[C@@H](CCC(N)=O)C(=O)N1)C(=O)N[C@@H](CC(N)=O)C(=O)NCC(N)=O"
Reply: < 10 nM

Ask: Please report the measured IC50 for "COc1ccc(C[C@H](NC(=O)[C@@H](NC(=O)[C@H](CCC(N)=O)NC(=O)[C@H](Cc2c[nH]c3ccccc23)NC(=O)[C@@H](NC(=O)[C@H](CCC(N)=O)NC(=O)[C@@H](NC(=O)CCCC(=O)O)C(C)(C)S)[C@@H](C)O)C(C)(C)S)C(=O)N[C@@H](Cc2ccc3ccccc3c2)C(=O)N[C@@](C)(CCCCN)C(=O)N[C@@H](CCCCNC(C)=O)C(=O)N[C@@H](CC(N)=O)C(=O)NCC(N)=O)cc1"
Reply: 25 to 100 nM

====

I'd appreciate it if you could supply half-life at 20 µM values for the items below.
experiment: Half life in simulated intestinal fluid at 20 uM by LC-MS/MS analysis; assay type: ADME
*1 amine or outer side, *2 acyl side, *3 side chain or, on linkers, in order; H or OH if unused. Where a SMILES comes first, the peptide text is derived from it. Bridges are numbered along the chain shown (N, C = ends). [ ]: non-standard residue; d: D form. Abu(4-yl) = O=C([C@H](CC[*:3])N[*:1])[*:2]; 2Nal = N[C@@H](Cc1ccc2ccccc2c1)C(=O)O; AEF = NCCOc1ccc(C[C@H](N)C(=O)O)cc1; αMeK = C[C@](N)(CCCCN)C(=O)O; Aib = CC(C)(N)C(=O)O

Ask: Please report the measured half-life at 20 µM for CC(=O)N[C@H]1CCSC[C@@H](C(=O)N[C@@H](Cc2ccc3ccccc3c2)C(=O)N[C@@H](Cc2ccc3ccccc3c2)C(=O)N[C@@](C)(CCCCN)C(=O)N[C@@H](CCC(=O)O)C(=O)N[C@@H](CC(N)=O)C(=O)NCC(N)=O)NC(=O)[C@H](CCC(N)=O)NC(=O)[C@H](Cc2c[nH]c3ccccc23)NC(=O)[C@H]([C@@H](C)O)NC(=O)[C@H](CCC(N)=O)NC1=O (Ac-[Abu(4-yl)]QTWQC[2Nal][2Nal][αMeK]ENG-NH2; thioether 1-6)
Reply: 3 to 6 h

Ask: Please report the measured half-life at 20 µM for CC(=O)N[C@H]1CCSC[C@@H](C(=O)N[C@@H](Cc2ccc(OCCN)cc2)C(=O)N[C@@H](Cc2ccc3ccccc3c2)C(=O)NC(C)(C)C(=O)N[C@@H](CCC(N)=O)C(=O)N[C@@H](CC(N)=O)C(=O)NCC(N)=O)NC(=O)[C@H](CCC(N)=O)NC(=O)[C@H](Cc2c[nH]c3ccccc23)NC(=O)[C@H]([C@@H](C)O)NC(=O)[C@H](CCC(N)=O)NC1=O (Ac-[Abu(4-yl)]QTWQC[AEF][2Nal][Aib]QNG-NH2; thioether 1-6)
Reply: 2 to 3 h

Ask: Please report the measured half-life at 20 µM for "CC(=O)NCCCC[C@H](NC(=O)[C@](C)(CCCCN)NC(=O)[C@H](Cc1ccc2ccccc2c1)NC(=O)[C@H](Cc1ccc(OCCN)cc1)NC(=O)[C@@H]1CSCC[C@H](NC(C)=O)C(=O)N[C@@H](CCC(N)=O)C(=O)N[C@@H]([C@@H](C)O)C(=O)N[C@@H](Cc2c[nH]c3ccccc23)C(=O)N[C@@H](CCC(N)=O)C(=O)N1)C(=O)N[C@@H](CC(N)=O)C(=O)NCC(N)=O"
Reply: > 6 h
